Tested on: 439559-082-T-J2-PDC spheroids viability
Test: Anticancer human tumor 439559-082-T-J2-PDC patient-derived colon adenocarcinoma cell line growth inhibition [GQUAD]
Details: second compound 1 µM; first compound 3.16 µM; hits give low values
quantityMeasured: viability, T/C (%)
I only need the number, in %, no unit after it.

Give the measured viability, T/C of COc1ncnc(C2CC2)c1-c1ncc2cnn(Cc3ccc(-c4nc(C(F)(F)F)cn4C(C)C)cc3)c2n1 + Cc1cnc(CNC(=O)c2c(=O)c3ccc(N4CCCN(C)CC4)nc3n3c2sc2ccccc23)cn1 .
83.7

Give the measured viability, T/C of CC1COCCN1c1cc(-c2ccnn2C)c2ccnc(-c3ccn[nH]3)c2n1 (stereo not given) + Cc1cnc(CNC(=O)c2c(=O)c3ccc(N4CCCN(C)CC4)nc3n3c2sc2ccccc23)cn1 .
32

Give the measured viability, T/C of C=CC(=O)N1CCN(c2nc(=O)n(-c3c(C)ccnc3C(C)C)c3nc(-c4c(O)cccc4F)c(F)cc23)C(C)C1 (stereo not given) + CN(C)c1ccc(Nc2c3ccc(NC(=O)CCN4CCCC4)cc3nc3cc(NC(=O)CCN4CCCC4)ccc23)cc1 .
120

Give the measured viability, T/C of C#Cc1c(F)ccc2cc(O)cc(-c3ncc4c(N5CC6CCC(C5)N6)nc(OCC56CCCN5CC(F)C6)nc4c3F)c12 (stereo not given) + CN(C)c1ccc(Nc2c3ccc(NC(=O)CCN4CCCC4)cc3nc3cc(NC(=O)CCN4CCCC4)ccc23)cc1 .
61.8

Give the measured viability, T/C of O=c1[nH]cc(F)c(=O)[nH]1 + CN(C)c1ccc(Nc2c3ccc(NC(=O)CCN4CCCC4)cc3nc3cc(NC(=O)CCN4CCCC4)ccc23)cc1 .
74.6

* * *

Test system: 439559-082-T-J2-PDC spheroids viability
Assay: Anticancer human tumor 439559-082-T-J2-PDC cell line growth inhibition [GQUAD]
Details: second compound 3.16 µM; first compound 0.316 µM; hits give low values
Would you kindly list viability, T/C for each of these compounds?
I only need the number, in %, no unit after it.

Give the measured viability, T/C of COc1cc(C2c3cc4c(cc3C(OC3OC5COC(C)OC5C(O)C3O)C3COC(=O)C23)OCO4)cc(OC)c1O (stereo not given) + Cc1cnc(CNC(=O)c2c(=O)c3ccc(N4CCCN(C)CC4)nc3n3c2sc2ccccc23)cn1 .
66

Give the measured viability, T/C of CCCS(=O)(=O)Nc1ccc(F)c(C(=O)c2c[nH]c3ncc(-c4ccc(Cl)cc4)cc23)c1F + Cc1cnc(CNC(=O)c2c(=O)c3ccc(N4CCCN(C)CC4)nc3n3c2sc2ccccc23)cn1 .
70.8

Give the measured viability, T/C of COc1cccc2c1C(=O)c1c(O)c3c(c(O)c1C2=O)CC(O)(C(=O)CO)CC3OC1CC(N)C(O)C(C)O1 (stereo not given) + Cc1cnc(CNC(=O)c2c(=O)c3ccc(N4CCCN(C)CC4)nc3n3c2sc2ccccc23)cn1 .
65

Give the measured viability, T/C of C=CCn1c(=O)c2cnc(Nc3ccc(N4CCN(C)CC4)cc3)nc2n1-c1cccc(C(C)(C)O)n1 + Cc1[nH]c2ccc(F)cc2c1-c1nc2c3cccnc3c3ncccc3c2[nH]1 .
78.7

Give the measured viability, T/C of CC1COCCN1c1cc(C2(O)CC3CCC(C2)O3)c2cnn(-c3ccn[nH]3)c2n1 (stereo not given) + Cc1cnc(CNC(=O)c2c(=O)c3ccc(N4CCCN(C)CC4)nc3n3c2sc2ccccc23)cn1 .
49.9

* * *

System: 439559-082-T-J2-PDC spheroids viability
Test: Anticancer human tumor 439559-082-T-J2-PDC cell line growth inhibition [GQUAD];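 further: spheroids exposed to the agents for 7 days before readout; percent of luminescence signal in DMSO vehicle wells taken as 100% viability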
Settings: second compound 3.16 µM; first compound 0.316 µM; hits give low values
quantityMeasured: viability, T/C (%)
I only need the number, in %, no unit after it.

Quick check: viability, T/C on 439559-082-T-J2-PDC spheroids viability, item CC(C)(O)C1CCC(Nc2ccc3ncc(-c4cccc(C(F)(F)F)c4)n3n2)CC1 (stereo not given) + CN(C)c1ccc(Nc2c3ccc(NC(=O)CCN4CCCC4)cc3nc3cc(NC(=O)CCN4CCCC4)ccc23)cc1 ?
103

Quick check: viability, T/C on 439559-082-T-J2-PDC spheroids viability, item O=C(NO)c1cnc(N2CCN(S(=O)(=O)c3ccc4ccccc4c3)CC2)nc1 + Cc1cnc(CNC(=O)c2c(=O)c3ccc(N4CCCN(C)CC4)nc3n3c2sc2ccccc23)cn1 ?
58.1

Quick check: viability, T/C on 439559-082-T-J2-PDC spheroids viability, item C=CC(=O)N1CCN(c2nc(=O)n(-c3c(C)ccnc3C(C)C)c3nc(-c4c(O)cccc4F)c(F)cc23)C(C)C1 (stereo not given) + Cc1[nH]c2ccc(F)cc2c1-c1nc2c3cccnc3c3ncccc3c2[nH]1 ?
85.6

Quick check: viability, T/C on 439559-082-T-J2-PDC spheroids viability, item CCc1c2c(nc3ccc(O)cc13)-c1cc3c(c(=O)n1C2)COC(=O)[C@]3(O)CC + Cc1cnc(CNC(=O)c2c(=O)c3ccc(N4CCCN(C)CC4)nc3n3c2sc2ccccc23)cn1 ?
24.6

Quick check: viability, T/C on 439559-082-T-J2-PDC spheroids viability, item CCCS(=O)(=O)Nc1ccc(F)c(C(=O)c2c[nH]c3ncc(-c4ccc(Cl)cc4)cc23)c1F + CN(C)c1ccc(Nc2c3ccc(NC(=O)CCN4CCCC4)cc3nc3cc(NC(=O)CCN4CCCC4)ccc23)cc1 ?
108

* * *

Test system: 439559-082-T-J2-PDC spheroids viability
Test: Anticancer human tumor 439559-082-T-J2-PDC cell line growth inhibition [GQUAD];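 further: spheroids exposed to the agents for 7 days before readout; percent of luminescence signal in DMSO vehicle wells taken as 100% viability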
Conditions: second compound 0.0316 µM; first compound 0.00999 µM; hits give low values
quantityMeasured: viability, T/C (%)
I only need the number, in %, no unit after it.

Give the measured viability, T/C of Cc1[nH]c2ccccc2c1CCNCc1ccc(/C=C/C(=O)NO)cc1 + CN(C)c1ccc(Nc2c3ccc(NC(=O)CCN4CCCC4)cc3nc3cc(NC(=O)CCN4CCCC4)ccc23)cc1 .
91.8

Give the measured viability, T/C of Cn1ncnc1[C@H]1c2n[nH]c(=O)c3cc(F)cc(c23)N[C@@H]1c1ccc(F)cc1 + CN(C)c1ccc(Nc2c3ccc(NC(=O)CCN4CCCC4)cc3nc3cc(NC(=O)CCN4CCCC4)ccc23)cc1 .
104

Give the measured viability, T/C of CCc1c2c(nc3ccc(O)cc13)-c1cc3c(c(=O)n1C2)COC(=O)[C@]3(O)CC + Cc1cnc(CNC(=O)c2c(=O)c3ccc(N4CCCN(C)CC4)nc3n3c2sc2ccccc23)cn1 .
78.8

* * *

Tested on: 439559-082-T-J2-PDC spheroids viability
Experiment: Anticancer human tumor 439559-082-T-J2-PDC cell line growth inhibition [GQUAD];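 further: spheroids exposed to the agents for 7 days before readout; percent of luminescence signal in DMSO vehicle wells taken as 100% viability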
Settings: second compound 1 µM; first compound 10 µM; hits give low values
Would you kindly list viability, T/C for each of these compounds?
I only need the number, in %, no unit after it.

Give the measured viability, T/C of COc1ccc([C@@H](O)c2cc(-c3ncnc4cc(N5CCOCC5)ccc34)c(F)cc2Cl)nn1 + Cc1[nH]c2ccc(F)cc2c1-c1nc2c3cccnc3c3ncccc3c2[nH]1 .
75.6

Give the measured viability, T/C of CC(=O)O[C@H]1C(=O)[C@@]2(C)[C@H]([C@H](OC(=O)c3ccccc3)[C@]3(O)C[C@H](OC(=O)[C@H](O)[C@@H](NC(=O)c4ccccc4)c4ccccc4)C(C)=C1C3(C)C)[C@]1(OC(C)=O)CO[C@@H]1C[C@@H]2O + Cc1cnc(CNC(=O)c2c(=O)c3ccc(N4CCCN(C)CC4)nc3n3c2sc2ccccc23)cn1 .
42.9

Give the measured viability, T/C of C=CC(=O)N1CCN(c2nc(=O)n(-c3c(C)ccnc3C(C)C)c3nc(-c4c(O)cccc4F)c(F)cc23)C(C)C1 (stereo not given) + Cc1cnc(CNC(=O)c2c(=O)c3ccc(N4CCCN(C)CC4)nc3n3c2sc2ccccc23)cn1 .
75.9

Give the measured viability, T/C of COc1cccc2c1C(=O)c1c(O)c3c(c(O)c1C2=O)CC(O)(C(=O)CO)CC3OC1CC(N)C(O)C(C)O1 (stereo not given) + Cc1cnc(CNC(=O)c2c(=O)c3ccc(N4CCCN(C)CC4)nc3n3c2sc2ccccc23)cn1 .
44.7

Give the measured viability, T/C of CC(C)(O)C1CCC(Nc2ccc3ncc(-c4cccc(C(F)(F)F)c4)n3n2)CC1 (stereo not given) + Cc1[nH]c2ccc(F)cc2c1-c1nc2c3cccnc3c3ncccc3c2[nH]1 .
42.5

* * *

System: 439559-082-T-J2-PDC spheroids viability
Test: Anticancer human tumor 439559-082-T-J2-PDC cell line growth inhibition [GQUAD];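 further: spheroids exposed to the agents for 7 days before readout; percent of luminescence signal in DMSO vehicle wells taken as 100% viability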
Conditions: second compound 10 µM; first compound 0.0999 µM; hits give low values
quantityMeasured: viability, T/C (%)
I only need the number, in %, no unit after it.

Give the measured viability, T/C of Cc1[nH]c2ccccc2c1CCNCc1ccc(/C=C/C(=O)NO)cc1 + Cc1[nH]c2ccc(F)cc2c1-c1nc2c3cccnc3c3ncccc3c2[nH]1 .
91.5

Give the measured viability, T/C of CCc1c2c(nc3ccc(O)cc13)-c1cc3c(c(=O)n1C2)COC(=O)[C@]3(O)CC + Cc1cnc(CNC(=O)c2c(=O)c3ccc(N4CCCN(C)CC4)nc3n3c2sc2ccccc23)cn1 .
48.8

Give the measured viability, T/C of Cn1ncnc1[C@H]1c2n[nH]c(=O)c3cc(F)cc(c23)N[C@@H]1c1ccc(F)cc1 + Cc1[nH]c2ccc(F)cc2c1-c1nc2c3cccnc3c3ncccc3c2[nH]1 .
82

Give the measured viability, T/C of Cc1[nH]c2ccccc2c1CCNCc1ccc(/C=C/C(=O)NO)cc1 + Cc1cnc(CNC(=O)c2c(=O)c3ccc(N4CCCN(C)CC4)nc3n3c2sc2ccccc23)cn1 .
67.5

Give the measured viability, T/C of CC[C@@]1(O)C(=O)OCc2c1cc1n(c2=O)Cc2cc3c(CN(C)C)c(O)ccc3nc2-1 + Cc1[nH]c2ccc(F)cc2c1-c1nc2c3cccnc3c3ncccc3c2[nH]1 .
90.1

Give the measured viability, T/C of Cn1ncnc1[C@H]1c2n[nH]c(=O)c3cc(F)cc(c23)N[C@@H]1c1ccc(F)cc1 + Cc1cnc(CNC(=O)c2c(=O)c3ccc(N4CCCN(C)CC4)nc3n3c2sc2ccccc23)cn1 .
70.9

The reported numbers originate from PubChem BioAssay AID2060510.
